compounds and their reported Ki
# EXPERIMENTAL_TARGET: 5'-nucleotidase (Rattus norvegicus)
# Sequence (P21588 whole entry): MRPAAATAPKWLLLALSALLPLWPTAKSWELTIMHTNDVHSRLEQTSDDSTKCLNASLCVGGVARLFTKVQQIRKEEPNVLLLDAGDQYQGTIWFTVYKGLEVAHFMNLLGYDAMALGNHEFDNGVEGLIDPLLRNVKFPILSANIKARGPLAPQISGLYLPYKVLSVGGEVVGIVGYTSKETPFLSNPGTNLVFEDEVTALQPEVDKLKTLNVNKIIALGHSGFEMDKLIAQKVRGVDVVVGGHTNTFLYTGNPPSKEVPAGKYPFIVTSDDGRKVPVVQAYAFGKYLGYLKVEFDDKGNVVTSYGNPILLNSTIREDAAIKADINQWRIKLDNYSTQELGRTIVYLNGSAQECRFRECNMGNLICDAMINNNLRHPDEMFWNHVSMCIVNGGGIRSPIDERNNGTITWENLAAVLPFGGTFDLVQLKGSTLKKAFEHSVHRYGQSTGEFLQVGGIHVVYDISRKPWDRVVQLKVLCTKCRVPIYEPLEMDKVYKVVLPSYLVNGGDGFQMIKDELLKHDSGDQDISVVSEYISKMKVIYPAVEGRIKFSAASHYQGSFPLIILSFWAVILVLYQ
# ASSAY_TEXT: Inhibition of recombinant rat C-terminal His-tagged soluble form of CD73 expressed in baculovirus infected Sf9 insect cells using [2,8-3H]AMP as substrate measured after 25 mins by scintillation counting method
# output: bare number, implied unit µM

{"SMILES_REPRESENTATION": "Nc1ncnc2c1ncn2[C@@H]1O[C@H](COP(=O)(O)CP(=O)(O)O)[C@@H](O)[C@H]1O", "UNITS_LABEL": "µM", "Ki": 0.167}

Query (compound): "O=C(Nc1ccn([C@@H]2O[C@H](COP(=O)(O)CP(=O)(O)O)[C@@H](O)[C@H]2O)c(=O)n1)c1ccccc1" ; field requested: Ki
0.0139

====

compounds and their reported inhibition
# EXPERIMENTAL_TARGET: 5'-nucleotidase (Rattus norvegicus) (UniProt P21588)
# ASSAY_TEXT: Inhibition of recombinant rat C-terminal His-tagged soluble form of CD73 expressed in baculovirus infected Sf9 insect cells at 1 uM using [2,8-3H]AMP as substrate measured after 25 mins by scintillation counting method relative to control

Check out these entries, answers already filled in.
{"SMILES_REPRESENTATION": "Cc1cn([C@@H]2O[C@H](COP(=O)(O)CP(=O)(O)O)[C@@H](O)[C@H]2O)c(=O)[nH]/c1=N/OCc1ccccc1", "inhibition": "> 50%"}
{"SMILES_REPRESENTATION": "CCn1c(=O)n([C@@H]2O[C@H](COP(=O)(O)CP(=O)(O)O)[C@@H](O)[C@H]2O)cc/c1=N\\OCc1ccccc1", "inhibition": "> 50%"}
{"SMILES_REPRESENTATION": "O=c1[nH]c(=O)n([C@@H]2O[C@H](COP(=O)(O)CP(=O)(O)O)[C@@H](O)[C@H]2O)cc1F", "inhibition": "> 50%"}
{"SMILES_REPRESENTATION": "O=c1[nH]c(=O)n([C@@H]2O[C@H](COP(=O)(O)CP(=O)(O)O)[C@@H](O)[C@H]2O)cc1Br", "inhibition": "> 50%"}
{"SMILES_REPRESENTATION": "Cn1c(=O)ccn([C@@H]2O[C@H](COP(=O)(O)CP(=O)(O)O)[C@@H](O)[C@H]2O)c1=O", "inhibition": "> 50%"}

// lookup inhibition | system=5'-nucleotidase (Rattus norvegicus) (UniProt P21588) | key= "O=c1ccn([C@@H]2O[C@H](COP(=O)(O)CP(=O)(O)O)[C@@H](O)[C@@H]2O)c(=O)[nH]1"
8%

// lookup inhibition | system=5'-nucleotidase (Rattus norvegicus) (UniProt P21588) | key= "Nc1nc(=O)n([C@@H]2O[C@H](COP(=O)(O)CP(=O)(O)O)[C@@H](O)[C@H]2O)cc1I"
> 50%

// lookup inhibition | system=5'-nucleotidase (Rattus norvegicus) (UniProt P21588) | key= "O=c1ccn([C@@]23C[C@H]2[C@H](COP(=O)(O)CP(=O)(O)O)[C@@H](O)[C@H]3O)c(=O)[nH]1"
12%

// lookup inhibition | system=5'-nucleotidase (Rattus norvegicus) (UniProt P21588) | key= "Nc1ncnc2c1ncn2[C@@H]1O[C@H](COP(=O)(O)CP(=O)(O)O)[C@@H](O)[C@H]1N"
2%

// lookup inhibition | system=5'-nucleotidase (Rattus norvegicus) (UniProt P21588) | key= "O=c1ccn([C@@H]2O[C@H](COP(=O)(O)CP(=O)(O)O)[C@@H](O)[C@@H]2F)c(=O)[nH]1"
> 50%
